# measurement-notes: xn = mol fraction of the nth substance listed, in the solute-free solvent
# condition-set: 298.15 K; x2 = 0.6101
measurement-name: solubility (g/100 g solution)

{"columns": ["molecule", "solubility (g/100 g solution)"],
 "data": [
  ["CC(C)OC(=O)C(C)NP(=O)(OCC1OC(n2ccc(=O)[nH]c2=O)C(C)(F)C1O)Oc1ccccc1 (centres undefined) + CCO + O", 28.5]
]}

P: Cc1[nH]c(=O)c(C#N)cc1-c1ccncc1 + CCO + O
Q: COc1cc2c(cc1OC)-c1cc3ccc(OC)c(OC)c3c[n+]1CC2.[Cl-] + CCO + O
R: Nc1cccc(S(=O)(=O)c2cccc(N)c2)c1 + CCO + O
Ask: Put these in order: smallest solubility (g/100 g solution) first, largest last. // list labels; follow requested order
Result: P, R, Q
(P: 0.00745, R: 1.55, Q: 3.6)
